Target: T1, DFNB31_2, Q9P202
T1 sequence (Q9P202 274-371, limits assumed, looked up): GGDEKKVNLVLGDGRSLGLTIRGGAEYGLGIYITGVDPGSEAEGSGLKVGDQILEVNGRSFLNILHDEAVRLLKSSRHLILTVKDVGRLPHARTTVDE
Assay: holdup assay
Parameters: key: below the threshold = too weak to quantify, mostly under pKd 3.1 to 4
Conditions: plain residues with an end cap or a label only (N-terminal biotin on a linker: ahx)
ENDPOINT: pKd

| BINDER | RESULT |
| --- | --- |
| TQKFRASTAL [FRMPD1, Q5SYB0] | below the threshold |
| TESNLQTSSC [CGN, Q9P2M7] | below the threshold |
| HTHSYIETHV [CNKSR2, Q8WXI2] | 3.76 |
| QDEKVKESYV [ABCA1, O95477] | 4.79 |
| QNTDDVQTSF [ACE2, Q9BYF1] | below the threshold |
